Reference source: patent US20170029355A1

# Procedure Text: In vitro dicamba photo-release from photo-labile dicamba esters, tetrahydrofuran solvent (Example 26)
# Format: physicochemical
# Conditions Used: THF, 0.1 mM ester, simulated sunlight 14 hours per day, 35° C., 3 days
Readout Kind: Conversion to dicamba, 3 days (%)

COc1c(Cl)ccc(Cl)c1C(=O)OCCc1ccccc1[N+](=O)[O-] | 72
COc1c(Cl)ccc(Cl)c1C(=O)OCc1ccccc1[N+](=O)[O-] | 47
COc1ccc(C(=O)COC(=O)c2c(Cl)ccc(Cl)c2OC)cc1 | 90
COc1c(Cl)ccc(Cl)c1C(=O)Oc1cnc2ccccc2n1 [Ester 13a, 2-quinoxalinol ester of dicamba] | 43
CCCCOc1ccc(C(=O)COC(=O)c2c(Cl)ccc(Cl)c2OC)cc1 | 16

====

# Tested on: hemp sesbania
# Procedure Text: Field testing of emulsifiable concentrates, post-emergent control (Example 38)
# Type: in vivo
# Conditions Used: 420 g dicamba acid equivalent per hectare, 11 or 21 days after treatment
Readout Kind: % control, 420 g/ha, Hemp sesbania

COc1ccc(C(=O)COC(=O)c2c(Cl)ccc(Cl)c2OC)cc1 [Ester 9] | 93%
COc1c(Cl)ccc(Cl)c1C(=O)OCc1ccccc1[N+](=O)[O-] [Ester 1a, 2-Nitrobenzyl Ester of Dicamba] | 98%
COc1c(Cl)ccc(Cl)c1C(=O)O.NCCOCCO [Diglycolamine salt, diglycolamine salt of dicamba, reference compound] | 88%
COc1c(Cl)ccc(Cl)c1C(=O)Oc1cnc2ccccc2n1 [Ester 13a, 2-quinoxalinol ester of dicamba] | 98%
COc1c(Cl)ccc(Cl)c1C(=O)OCCc1ccccc1[N+](=O)[O-] [Ester 2, 2-Nitrophenethyl Ester of Dicamba] | 97%

====

# Procedure Text: In vitro photo-release and hydrolytic release of dicamba in an aqueous medium (Example 35)
# Format: physicochemical
# Conditions Used: 0.01 mM ester, amber (dark) bottle, 35° C., Day 21
Readout Kind: Conversion to Dicamba, Dark, Day 21 (%)

COc1c(Cl)ccc(Cl)c1C(=O)OCc1ccccc1[N+](=O)[O-] [Ester 1a, 2-Nitrobenzyl Ester of Dicamba] | 8
COc1ccc(OC(=O)c2c(Cl)ccc(Cl)c2OC)cc1 [Ester 30a, 4-methoxyphenyl ester of dicamba] | 17
COc1c(Cl)ccc(Cl)c1C(=O)Oc1ccc(=O)n(CCC(C)=O)n1 [Ester 32a] | 55
COc1c(Cl)ccc(Cl)c1C(=O)OCCc1ccccc1[N+](=O)[O-] [Ester 2, 2-Nitrophenethyl Ester of Dicamba] | 3

====

Listed next: entries and their corresponding Conversion to Dicamba, Light, Day 21.
# Procedure Text: In vitro photo-release and hydrolytic release of dicamba in an aqueous medium (Example 35)
# Assay type: physicochemical
# Conditions Used: 0.01 mM ester, quartz tube, 14-hour day, 35° C., Day 21
Readout Kind: Conversion to Dicamba, Light, Day 21 (%)

COc1c(Cl)ccc(Cl)c1C(=O)OCc1ccccc1[N+](=O)[O-] | 75
COc1c(Cl)ccc(Cl)c1C(=O)Oc1ccc(=O)n(CCC(C)=O)n1 [Ester 32a] | 50
COc1c(Cl)ccc(Cl)c1C(=O)OCCc1ccccc1[N+](=O)[O-] | 83
COc1ccc(OC(=O)c2c(Cl)ccc(Cl)c2OC)cc1 [Ester 30a, 4-methoxyphenyl ester of dicamba] | 29

====

# Procedure Text: In vitro dicamba photo-release from photo-labile dicamba esters, tetrahydrofuran solvent (Example 26)
# Format: physicochemical
# Conditions Used: THF, 0.1 mM ester, simulated sunlight 14 hours per day, 35° C., 5 days
Readout Kind: Conversion to dicamba, 5 days (%)

CCCCOc1ccc(C(=O)COC(=O)c2c(Cl)ccc(Cl)c2OC)cc1 | 19
COc1c(Cl)ccc(Cl)c1C(=O)OCCc1ccccc1[N+](=O)[O-] | 84
COc1c(Cl)ccc(Cl)c1C(=O)OCc1ccccc1[N+](=O)[O-] | 66
COc1ccc(C(=O)COC(=O)c2c(Cl)ccc(Cl)c2OC)cc1 | 89
COc1c(Cl)ccc(Cl)c1C(=O)Oc1cnc2ccccc2n1 [Ester 13a, 2-quinoxalinol ester of dicamba] | 48
